System: MDBK cells
VALUE_KIND: cell toxicity

1) C[C@H]1[C@H](OC(=O)CCC(=O)O)O[C@@H]2O[C@@]3(C)CC[C@H]4[C@H](C)CC[C@@H]1[C@@]24OO3 [Artensunate, artesunate]; stayed low
2) C[C@@H]1CC[C@H]2[C@@H](C)C(=O)O[C@@H]3O[C@@]4(C)CC[C@@H]1[C@]32OO4 [Artemisinin, artemisinin]; stayed low
3) C[C@H]1[C@@H](O)O[C@@H]2O[C@@]3(C)CC[C@H]4[C@H](C)CC[C@@H]1[C@@]24OO3 [Dihydroartemisinin, dihydroartemisinin]; stayed low
4) CO[C@H]1O[C@@H]2O[C@@]3(C)CC[C@H]4[C@H](C)CC[C@@H]([C@H]1C)[C@@]24OO3 [Artemether, artemether]; stayed low
